experiment: Inhibition of GPX4 in human LOX IMVI cells assessed as ferroptosis-mediated cell death measured as cell viability in presence of ferrostatin-1
measure: EC50

[
  {
    "compound": "CCCCCCCN(C(=O)c1noc(C)c1[N+](=O)[O-])c1cccc(C)c1",
    "meas value": "> 33 µM"
  },
  {
    "compound": "COC(=O)c1ccc([C@@H]2c3[nH]c4ccccc4c3C[C@H](C(=O)OC)N2C(=O)CCl)cc1",
    "meas value": "> 33 µM"
  },
  {
    "compound": "CC#CC(=O)N(c1ccc(OC)c(Cl)c1)C(C(=O)NCCc1ccccc1)c1cccs1 (centres undefined)",
    "meas value": "> 33 µM"
  },
  {
    "compound": "COc1ccc(N(C(=O)C(F)(Cl)C(F)(F)F)C(C(=O)NCCc2ccccc2)c2cccs2)cc1Cl (centres undefined)",
    "meas value": "> 33 µM"
  },
  {
    "compound": "O=C(c1cccnc1Cl)N1CCN(C(c2ccc(Cl)cc2)c2ccc(Cl)cc2)CC1",
    "meas value": "> 33 µM"
  },
  {
    "compound": "O=C(CCl)N1CCN(C(c2ccc(Cl)cc2)c2ccc(Cl)cc2)CC1",
    "meas value": "4.2 µM"
  },
  {
    "compound": "COc1ccc(N(C(=O)C#C[Si](C(C)C)(C(C)C)C(C)C)C(C(=O)NCCc2ccccc2)c2cccs2)cc1Cl (centres undefined)",
    "meas value": "> 33 µM"
  },
  {
    "compound": "COC(=O)c1ccc([C@H]2c3[nH]c4ccccc4c3C[C@H](C(=O)OC)N2C(=O)CCl)cc1",
    "meas value": "3.8 µM"
  },
  {
    "compound": "C[Si](C)(C)C#CC(=O)N1CCN(C(c2ccc(Cl)cc2)c2ccc(Cl)cc2)CC1",
    "meas value": "4.8 µM"
  }
]
